- target-or-system: SSTR2 (Homo sapiens)
- Construct: host or cells: CHO-K1
- Sequence (P30874 whole entry): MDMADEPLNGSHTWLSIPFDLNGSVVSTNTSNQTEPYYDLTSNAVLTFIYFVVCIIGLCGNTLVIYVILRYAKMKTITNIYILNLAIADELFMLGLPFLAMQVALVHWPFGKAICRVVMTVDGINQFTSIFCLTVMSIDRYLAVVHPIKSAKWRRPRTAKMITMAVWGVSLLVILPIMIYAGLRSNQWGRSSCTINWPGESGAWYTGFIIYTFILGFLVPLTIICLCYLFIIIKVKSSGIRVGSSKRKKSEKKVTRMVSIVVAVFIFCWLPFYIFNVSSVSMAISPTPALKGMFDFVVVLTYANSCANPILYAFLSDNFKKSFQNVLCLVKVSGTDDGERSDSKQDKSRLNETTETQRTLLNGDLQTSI
- assay-details: competitive radioligand binding assay (125I-Tyr11-Somatostatin-14) on membranes of SSTR2-overexpressing CHO-K1 cells
- condition-set: parameter C of sigmoidal fit; 8 concentrations in duplicate; radioligand 125I-Tyr11-Somatostatin-14; SSTR2 CHO-K1 cell membrane; read-out: Relative EC50
Numbered stars: 1 amine (or outer) side, 2 acyl side, 3 side chain; on linkers, the order of the positions; unused ones are H or OH. Bridge positions count the residues as written; N and C are the ends. Square brackets hold non-standard residues; d marks the D form. Peptide text beside a SMILES is read from it. X2 = CC(C)(CN)CC[C@H](N[*:1])C(=O)[*:2]; X1 = CC(CN)CC[C@H](N[*:1])C(=O)[*:2]; Thr(ol) = C[C@@H](O)[C@H](N)CO
measurement-name: EC50 (pM)
Answer format: numeric, pM implied, no suffix.

Reported EC50 for C[C@@H](O)[C@@H]1NC(=O)[C@H](CCCCCN)NC(=O)[C@@H](Cc2c[nH]c3ccccc23)NC(=O)[C@H](Cc2ccccc2)NC(=O)[C@@H](NC(=O)[C@H](N)Cc2ccccc2)CSSC[C@@H](C(=O)N[C@H](CO)[C@@H](C)O)NC1=O : what is it? 1300

Could you share which EC50 value was measured for CC(CN)CC[C@@H]1NC(=O)[C@@H](Cc2c[nH]c3ccccc23)NC(=O)[C@H](Cc2ccccc2)NC(=O)[C@@H](NC(=O)[C@H](N)Cc2ccccc2)CSSC[C@@H](C(=O)N[C@H](CO)[C@@H](C)O)NC(=O)[C@H]([C@@H](C)O)NC1=O (stereo partly shown) [Compound 3] (H-[dF]CF[dW][X1]TC[Thr(ol)]; disulfide 2-7) ? 290

Entry C[C@@H](O)[C@@H]1NC(=O)[C@H](C2CCCC(CN)C2)NC(=O)[C@@H](Cc2c[nH]c3ccccc23)NC(=O)[C@H](Cc2ccccc2)NC(=O)[C@@H](NC(=O)[C@H](N)Cc2ccccc2)CSSC[C@@H](C(=O)N[C@H](CO)[C@@H](C)O)NC1=O (single isomer, unassigned) has what EC50? 91

Query (compound): C[C@@H](O)[C@@H]1NC(=O)[C@H](CCC(C)(C)CN)NC(=O)[C@@H](Cc2c[nH]c3ccccc23)NC(=O)[C@H](Cc2ccccc2)NC(=O)[C@@H](NC(=O)[C@H](N)Cc2ccccc2)CSSC[C@@H](C(=O)N[C@H](CO)[C@@H](C)O)NC1=O [Compound 2] (H-[dF]CF[dW][X2]TC[Thr(ol)]; disulfide 2-7) ; field requested: EC50 1200
